Tested on: intracellular MRSA; further: test concentration or dose not given here
Assay type: cell-based, Staphylococcus aureus
settings: PKIS compound screen, MRSA-infected HeLa cells, replicate 1
Please use fulfilled whenever z-scoreMRSA+ rep 1 is not below -1, and not fulfilled whenever it is.

compound	category.label
CCCNC(=O)Nc1ccc(N(C)c2ccnc(NC3CC3)n2)cc1 [GW818933X]	fulfilled
Cc1ccc(O)cc1Nc1ccnc2cc(-c3ccc(CN4CCCCC4)o3)ccc12 [GW557777X]	not fulfilled
c1ccc(Oc2ccc(Nc3ccnc4cc(-c5ccc(CNCCN6CCOCC6)o5)ccc34)cc2)nc1 [GW567145X]	fulfilled
COC(=O)Nc1nc2ccc(Oc3ccc(NC(=O)Nc4cc(C(F)(F)F)ccc4F)cc3)cc2n1C [GW692089A]	fulfilled
O=C1Nc2ccc(-c3cccnc3)cc2C1=Cc1cc(Br)c(O)c(Br)c1 [GW429374A]	not fulfilled
Nc1ncc(-c2cccnc2)c2scc(-c3ccc4c(c3)CCN4C(=O)Cc3ccccc3)c12 [GSK683281A]	fulfilled
c1ccc(-c2n[nH]cc2Nc2ccnc3ccccc23)nc1 [GW694077X]	fulfilled
CC(C)c1nc(-c2cccc(NS(=O)(=O)c3ccccc3)c2)c(-c2ccnc(Nc3ccc4c(c3)CN(C)CC4)n2)s1 [GSK1649598A]	not fulfilled
Cc1c2ccc(N(C)c3ccnc(Nc4cccc(S(N)(=O)=O)c4)n3)cc2nn1C [GW771127A]	not fulfilled
Fc1cc(Cl)ccc1Nc1ccnc2cc(-c3ccc(CN4CCSCC4)o3)ccc12 [GW560106X]	fulfilled
Fc1ccc(-c2ncn(C3CCNCC3)c2-c2ccnc(Oc3cccc(C(F)(F)F)c3)n2)cc1 [SB-253226]	not fulfilled
Cc1ccc(O)cc1Nc1ccnc2ccc(S(C)(=O)=O)cc12 [GW559768X]	not fulfilled
NS(=O)(=O)c1cccc(-c2cc3ccncc3cc2OCc2ccccc2)c1 [GSK980961A]	not fulfilled
COc1cc2c(Nc3cccc(NC(=O)c4ccccc4)c3)ncnc2cc1OCCCN1CCOCC1 [GSK223810A]	fulfilled
CCS(=O)(=O)c1ccc(OC)c(Nc2ncc(-c3cccc(-c4ccccc4F)c3)o2)c1 [GW678313X]	not fulfilled
Cc1cccc(-c2nc(Nc3cccc(C(N)=O)c3)c3ccccc3n2)n1 [GW876019X]	not fulfilled
O=c1cc(N2CCOCC2)nc2n(Cc3cccc4ccccc34)ccn12 [GSK2333389A]	not fulfilled
